# Peak IIa [nM], Ab 50 nM per entry
# experimentalSystem: Relipidated TF (Tissue Factor) (UniProt P13726 33-295, limits assumed)
# procedureDetails: cell-based or functional assay
propertyLabel: Peak IIa [nM], Ab 50 nM (nM)

binder	reportedValue
TF-011 (antibody, V domains shown) VH: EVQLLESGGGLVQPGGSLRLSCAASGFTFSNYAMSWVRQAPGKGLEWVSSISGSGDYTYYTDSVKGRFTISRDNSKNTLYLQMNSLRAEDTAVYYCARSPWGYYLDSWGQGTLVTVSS VL: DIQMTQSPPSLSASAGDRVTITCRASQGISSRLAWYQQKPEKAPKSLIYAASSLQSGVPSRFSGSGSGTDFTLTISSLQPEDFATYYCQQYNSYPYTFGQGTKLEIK	39
5G9 (humanized TF8-5G9, CNTO 860) (antibody, V domains shown) VH: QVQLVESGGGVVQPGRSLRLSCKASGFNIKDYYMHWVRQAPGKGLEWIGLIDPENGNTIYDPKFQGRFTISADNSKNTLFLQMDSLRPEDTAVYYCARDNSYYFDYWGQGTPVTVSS VL: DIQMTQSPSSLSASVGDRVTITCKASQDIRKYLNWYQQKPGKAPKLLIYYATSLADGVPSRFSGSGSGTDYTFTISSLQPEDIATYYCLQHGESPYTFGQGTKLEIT	28
25A (antibody, human IgG1, V domains shown) VH: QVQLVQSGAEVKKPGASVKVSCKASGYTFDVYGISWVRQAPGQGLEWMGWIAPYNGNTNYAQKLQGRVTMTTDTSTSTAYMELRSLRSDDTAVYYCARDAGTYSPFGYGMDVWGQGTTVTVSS VL: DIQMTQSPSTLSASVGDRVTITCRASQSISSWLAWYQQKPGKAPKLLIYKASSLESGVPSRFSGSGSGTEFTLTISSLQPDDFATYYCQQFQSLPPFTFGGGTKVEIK	317
39A (antibody, human IgG1, V domains shown) VH: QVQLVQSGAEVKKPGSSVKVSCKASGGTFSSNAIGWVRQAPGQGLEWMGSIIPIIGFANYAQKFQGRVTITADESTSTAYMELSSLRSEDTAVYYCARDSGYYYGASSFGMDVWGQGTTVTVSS VL: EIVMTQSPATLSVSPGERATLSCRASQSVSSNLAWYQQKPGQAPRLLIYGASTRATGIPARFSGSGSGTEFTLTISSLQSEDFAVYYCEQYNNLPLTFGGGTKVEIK	36
